For each of the sequences below, state its shrunken log2 fold change.
system: Escherichia coli TOP10; test: shrunken log2 fold change of peptide-encoding DNA abundance (4.5 h post-induction vs induction); higher = less antimicrobial activity (less host growth inhibition); conditions: time post-induction: 4.5 h; library: site-saturation at positions 5, 18, 19, 20
Answer field: number only, no words.

Can you share its shrunken log2 fold change? I mean this sequence: RRIRFRPPRLPRPRPRPRKDPRP -0.302

Reported shrunken log2 fold change for RRIRYRPPRLPRPRPRPAHLPRP : what is it? -0.0584

Returns the measured shrunken log2 fold change for the input sequence. Input: RRIRQRPPRLPRPRPRPVNIPRP 0.0209

Look at this sequence and give its reported shrunken log2 fold change. RRIRQRPPRLPRPRPRPRWRPRP 0.557

Reported shrunken log2 fold change, sequence RRIRIRPPRLPRPRPRPQVEPRP : ____ -0.127

What measured shrunken log2 fold change goes with RRIRKRPPRLPRPRPRPCCSPRP ? -0.189

Look up shrunken log2 fold change: RRIRFRPPRLPRPRPRPWQYPRP 0.0191

Form field: reported shrunken log2 fold change of RRIRERPPRLPRPRPRPWTHPRP -0.0081

Entry under review: RRIRVRPPRLPRPRPRPKGYPRP . Reported shrunken log2 fold change? -0.0404

---

Would you kindly list shrunken log2 fold change for each of these sequences?
test system: Escherichia coli TOP10; assay: shrunken log2 fold change of peptide-encoding DNA abundance (4.5 h post-induction vs induction); higher = less antimicrobial activity (less host growth inhibition); conditions: time post-induction: 4.5 h; library: site-saturation at positions 5, 18, 19, 20

Field request: shrunken log2 fold change | item: RRIRRRPPRLPRPRPRPPEFPRP 0.614

Returns the measured shrunken log2 fold change for the input sequence. Input: RRIRYRPPRLPRPRPRPCRLPRP 0.0249

So what's the measured shrunken log2 fold change for this one? RRIRGRPPRLPRPRPRPALMPRP 0.879

Data request, read-out shrunken log2 fold change, for RRIRYRPPRLPRPRPRPWGMPRP -0.364

Entry RRIRWRPPRLPRPRPRPRHQPRP has what shrunken log2 fold change? -0.0137

Could you tell me which shrunken log2 fold change is on file for RRIRKRPPRLPRPRPRPIALPRP ? 0.0143

May I ask what shrunken log2 fold change has been recorded for RRIRTRPPRLPRPRPRPHAYPRP ? -0.635

Quick check: shrunken log2 fold change of RRIRFRPPRLPRPRPRPSAEPRP ? 0.0747

Field request: shrunken log2 fold change | item: RRIRMRPPRLPRPRPRPPSAPRP 1.2

What measured shrunken log2 fold change goes with RRIRNRPPRLPRPRPRPRYKPRP ? -0.566

Requested read-out: shrunken log2 fold change. Entry: RRIRSRPPRLPRPRPRPRDQPRP -0.0856

Query (sequence): RRIRIRPPRLPRPRPRPVDFPRP ; field requested: shrunken log2 fold change -0.133

Could you tell me which shrunken log2 fold change is on file for RRIRGRPPRLPRPRPRPAVMPRP ? 0.946

Name the reported shrunken log2 fold change value associated with the sequence RRIRGRPPRLPRPRPRPKEMPRP 0.5

Item under review: RRIRCRPPRLPRPRPRPWIYPRP . Reported shrunken log2 fold change? -0.821

Reported shrunken log2 fold change, sequence RRIRLRPPRLPRPRPRPWEPPRP : ____ 0.0843

Recorded shrunken log2 fold change for RRIRKRPPRLPRPRPRPWGHPRP , please? -0.0374

For the sequence shown here, RRIRNRPPRLPRPRPRPDRHPRP , give the reported shrunken log2 fold change. 0.0343

Suppose we examine the sequence RRIRGRPPRLPRPRPRPNHMPRP ; what shrunken log2 fold change value has been reported? -0.0194

So what's the measured shrunken log2 fold change for this one? RRIRCRPPRLPRPRPRPVWSPRP -0.119

For the sequence RRIRFRPPRLPRPRPRPMRFPRP , what shrunken log2 fold change is on record? -0.0257

---

tested on: Escherichia coli TOP10; assay: shrunken log2 fold change of peptide-encoding DNA abundance (4.5 h post-induction vs induction); higher = less antimicrobial activity (less host growth inhibition); details: time post-induction: 4.5 h; library: site-saturation at positions 5, 18, 19, 20
For each of the sequences below, state its shrunken log2 fold change.
Please give the numeric answer without any surrounding text.

Form field: reported shrunken log2 fold change of RRIRLRPPRLPRPRPRPSNTPRP -0.624

What does the data say about its shrunken log2 fold change? Entry: RRIRCRPPRLPRPRPRPIDVPRP -0.856

Give the measured shrunken log2 fold change of RRIRCRPPRLPRPRPRPEWNPRP . 0.202

Fill in: shrunken log2 fold change of RRIRVRPPRLPRPRPRPLCHPRP is ___ -0.364

So what's the measured shrunken log2 fold change for this one? RRIRNRPPRLPRPRPRPSMIPRP -0.427

Which shrunken log2 fold change is listed for RRIRYRPPRLPRPRPRPWYLPRP ? -0.268

Form field: reported shrunken log2 fold change of RRIRGRPPRLPRPRPRPSVTPRP 0.708

---

tested on: Escherichia coli TOP10; test: shrunken log2 fold change of peptide-encoding DNA abundance (4.5 h post-induction vs induction); higher = less antimicrobial activity (less host growth inhibition); conditions: time post-induction: 4.5 h; library: site-saturation at positions 5, 18, 19, 20;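 further: peptides expressed intracellularly from a pBAD plasmid library in pooled LB shake-flask culture, induced with 0.3% L-arabinose, DNA abundance read by NGS, three biological replicates, DESeq2 with apeglm shrinkage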
Classify as follows. Reported shrunken log2 fold change greater than or equal to 0.03: Yes. Reported shrunken log2 fold change below: No.

Decide: is the reported value of shrunken log2 fold change for RRIRHRPPRLPRPRPRPNHNPRP equal to or greater than 0.03? No

Could you verify whether the entry RRIRGRPPRLPRPRPRPLPVPRP shows shrunken log2 fold change of no less than 0.03? Yes

Identify whether the reported shrunken log2 fold change of the following sequence is 0.03 or greater: RRIRERPPRLPRPRPRPVSVPRP No

Hi team, for RRIRMRPPRLPRPRPRPNYVPRP , is the recorded shrunken log2 fold change at or above 0.03? No

I'd appreciate it if you could say whether RRIRHRPPRLPRPRPRPLILPRP has shrunken log2 fold change at least equal to 0.03. Yes

Given the entry RRIRVRPPRLPRPRPRPPFEPRP , answer whether its shrunken log2 fold change meets or surpasses 0.03. Yes

shrunken log2 fold change >= 0.03 for RRIRCRPPRLPRPRPRPSWMPRP ? Yes

State whether the measured shrunken log2 fold change reaches 0.03, counting equality as reaching it, for RRIRNRPPRLPRPRPRPLLQPRP No

I'd appreciate it if you could say whether RRIRLRPPRLPRPRPRPGRLPRP has shrunken log2 fold change at least equal to 0.03. Yes

Tell me whether shrunken log2 fold change is at least 0.03 here: RRIRGRPPRLPRPRPRPFRHPRP No

Reported shrunken log2 fold change at or above 0.03? RRIRVRPPRLPRPRPRPIEPPRP No

Exam item: decide whether the reported shrunken log2 fold change for RRIRSRPPRLPRPRPRPAVAPRP is at least 0.03. Yes

Assess whether reported shrunken log2 fold change for RRIRLRPPRLPRPRPRPPKEPRP sits at 0.03 or higher. No

In plain terms: is recorded shrunken log2 fold change at least 0.03 for RRIRRRPPRLPRPRPRPIMRPRP ? Yes

Could you verify whether the entry RRIRNRPPRLPRPRPRPVCNPRP shows shrunken log2 fold change of no less than 0.03? No

Decide: is the reported value of shrunken log2 fold change for RRIRSRPPRLPRPRPRPNHAPRP equal to or greater than 0.03? No

Please check the record RRIRCRPPRLPRPRPRPCPYPRP and state if its shrunken log2 fold change is at or above 0.03. No

Quick check: does RRIRYRPPRLPRPRPRPFEFPRP have shrunken log2 fold change greater than or equal to 0.03? No

Dear colleague, could you confirm whether RRIRNRPPRLPRPRPRPNFEPRP has shrunken log2 fold change at or above 0.03? No

Check if shrunken log2 fold change >= 0.03 (inclusive). Item: RRIRLRPPRLPRPRPRPVLSPRP No

Hi team, for RRIRDRPPRLPRPRPRPDICPRP , is the recorded shrunken log2 fold change at or above 0.03? No

In plain terms: is recorded shrunken log2 fold change at least 0.03 for RRIRLRPPRLPRPRPRPLEWPRP ? Yes

I'd appreciate it if you could say whether RRIRNRPPRLPRPRPRPRYNPRP has shrunken log2 fold change at least equal to 0.03. No

Given RRIRNRPPRLPRPRPRPSSQPRP , state whether its shrunken log2 fold change is at least 0.03. No

Quick check: does RRIRERPPRLPRPRPRPYEDPRP have shrunken log2 fold change greater than or equal to 0.03? No

Say whether RRIRCRPPRLPRPRPRPVVYPRP shows shrunken log2 fold change of 0.03 or more. No

For this sequence, is measured shrunken log2 fold change 0.03 or higher? RRIRMRPPRLPRPRPRPISMPRP No

Given the entry RRIRVRPPRLPRPRPRPFIFPRP , answer whether its shrunken log2 fold change meets or surpasses 0.03. No

Does the reported shrunken log2 fold change for RRIRLRPPRLPRPRPRPQKPPRP fall at or above the 0.03 mark? No

Assess whether reported shrunken log2 fold change for RRIRYRPPRLPRPRPRPQSAPRP sits at 0.03 or higher. No

Reported shrunken log2 fold change reaches at least 0.03 for RRIRWRPPRLPRPRPRPRLEPRP ? Yes

Dear colleague, could you confirm whether RRIRHRPPRLPRPRPRPMMKPRP has shrunken log2 fold change at or above 0.03? No

Given the entry RRIRGRPPRLPRPRPRPMGYPRP , answer whether its shrunken log2 fold change meets or surpasses 0.03. Yes

Has RRIRKRPPRLPRPRPRPCSQPRP a recorded shrunken log2 fold change greater than or equal to 0.03? No

Please check the record RRIRLRPPRLPRPRPRPMAHPRP and state if its shrunken log2 fold change is at or above 0.03. No

Has RRIRSRPPRLPRPRPRPWKLPRP a recorded shrunken log2 fold change greater than or equal to 0.03? No

Please tell me: is the sequence RRIRWRPPRLPRPRPRPPREPRP at or over 0.03 in terms of shrunken log2 fold change? Yes

Would you say RRIRPRPPRLPRPRPRPDTPPRP shows shrunken log2 fold change at minimum 0.03? Yes

Could you verify whether the entry RRIRHRPPRLPRPRPRPEDKPRP shows shrunken log2 fold change of no less than 0.03? No

// inclusive: shrunken log2 fold change at least 0.03? input: RRIRARPPRLPRPRPRPWTIPRP No

Could you tell me if the measured shrunken log2 fold change of RRIRWRPPRLPRPRPRPNCTPRP reaches 0.03 or more? No

Record RRIRTRPPRLPRPRPRPYEAPRP ; criterion: shrunken log2 fold change no lower than 0.03. Met? No

shrunken log2 fold change >= 0.03 for RRIRHRPPRLPRPRPRPAWMPRP ? Yes

Decide: is the reported value of shrunken log2 fold change for RRIRRRPPRLPRPRPRPMEPPRP equal to or greater than 0.03? No

Hi team, for RRIRERPPRLPRPRPRPESGPRP , is the recorded shrunken log2 fold change at or above 0.03? No

API: above_or_equal(metric=shrunken log2 fold change, cutoff=0.03) for item RRIRMRPPRLPRPRPRPMPSPRP Yes

Hi, just wondering whether RRIRHRPPRLPRPRPRPMMYPRP shows shrunken log2 fold change of 0.03 or higher. No

Test whether the sequence RRIRNRPPRLPRPRPRPCRNPRP records shrunken log2 fold change of 0.03 or higher. No

Determine whether this sequence has shrunken log2 fold change no lower than 0.03: RRIRERPPRLPRPRPRPVYYPRP No

Reported shrunken log2 fold change at or above 0.03? RRIRIRPPRLPRPRPRPAHNPRP No

Answer whether shrunken log2 fold change of RRIRRRPPRLPRPRPRPCRRPRP is greater than or equal to 0.03. Yes

Has RRIRDRPPRLPRPRPRPEKHPRP a recorded shrunken log2 fold change greater than or equal to 0.03? Yes
